test: protein stability index of a GFP-peptide fusion (yeast GPS) (PSI 1-4); higher = more stable; sorted into four equal gates, so the index is relative within each strain; conditions: doa10∆
Assay metric: protein stability index
I'd appreciate a reply containing only the number, no unit.

Consider the worked cases shown below.
// field: protein stability index; key: LFGGRHYLFNTFTFTAH [SWP82] ; value = 2.03

GET /value?item= QVARTNLDGTKAVKLRK [ROX3] &field=protein stability index returns 3.03

Given item SITTGNDNENIVNNDLP [MED2] , the value recorded as its protein stability index is 2.79

According to the records, this sequence IGEFNVSMYQNSSTSST [YDL088C/ASM4] displays protein stability index of 3.61

protein stability index reported for this sequence RVLEIQTSLVRMFEKNV [SKI6] : 3.35

Recorded protein stability index (sequence TSLVANENDKIYLLFQS [YDL116W/NUP84] ): 2.37

Others:
Looking up PGSVNSAAKYKDMKLLR [NUT1] , I found its protein stability index recorded as 2.89

Record summary for DPNEVKYLYLRAVGGEV [RPL12A] : reported protein stability index = 1.77

Data point: NKEKSNSPTSFFDGSAS [YOR098C/NUP1] ; protein stability index = 3.1

Data point: QITIEPGVDVEVVVASN [RPS20] ; protein stability index = 2.53

Quick note, protein stability index for TTTMLQLFSTFDRLNGN [SSN2] landed at 3.08

So for EMEVDAEGEEVEVKAEI [RPN1] , the logged protein stability index turned out to be 3.48

Reported protein stability index ( AFSFGAKPDEKKNDEVS [YJL041W/NSP1] ) = 3.22

Record GQGEQVDDVLETISAIE [RPN1] , field protein stability index: 3.4

Value source: the supplement of paper PMC9732359
